Sourced from ChEMBL document CHEMBL4190262

MEASUREMENT_TARGET: Beta-galactosidase (Bos taurus)
Sequence (Q58D55 whole entry): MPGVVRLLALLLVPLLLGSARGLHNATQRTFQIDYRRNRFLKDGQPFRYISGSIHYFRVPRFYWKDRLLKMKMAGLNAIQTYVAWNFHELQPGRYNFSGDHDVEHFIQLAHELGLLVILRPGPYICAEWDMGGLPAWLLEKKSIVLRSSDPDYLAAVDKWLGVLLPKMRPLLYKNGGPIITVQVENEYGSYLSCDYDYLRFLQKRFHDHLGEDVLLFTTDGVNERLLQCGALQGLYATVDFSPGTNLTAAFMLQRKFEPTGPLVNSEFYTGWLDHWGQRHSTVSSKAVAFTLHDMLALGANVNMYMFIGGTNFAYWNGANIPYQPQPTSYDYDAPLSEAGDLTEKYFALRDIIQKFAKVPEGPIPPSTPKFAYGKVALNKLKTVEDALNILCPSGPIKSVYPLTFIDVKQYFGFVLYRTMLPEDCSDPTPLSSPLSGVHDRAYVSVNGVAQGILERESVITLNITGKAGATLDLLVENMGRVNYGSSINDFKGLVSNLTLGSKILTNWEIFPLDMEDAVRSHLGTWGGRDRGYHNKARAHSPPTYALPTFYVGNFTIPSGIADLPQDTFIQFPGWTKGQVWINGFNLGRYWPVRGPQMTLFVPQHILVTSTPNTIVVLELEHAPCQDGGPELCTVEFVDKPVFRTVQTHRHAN
RECORDED_ENDPOINT: IC50 (µM)
Give bare numbers, in µM.

Example results:
>>> print(df.to_string())
                                        mol  recorded_endpoint  quantitative_readout
0  C[Si](C)(C)Cc1cn(C[C@@H]2NC[C@@H](O)[C@H]2O)nn1               IC50                   151
1  OCc1ccc(-c2cn(C[C@H]3NC[C@@H](O)[C@H]3O)nn2)cc1               IC50                   268
2  O[C@@H]1[C@H](O)CN[C@@H]1Cn1cc(-c2ccccc2)nn1               IC50                   173

Ask: # input compound: `COc1ccc2cc(-c3cn(C[C@H]4NC[C@@H](O)[C@H]4O)nn3)ccc2c1` ; wanted: its IC50
Result: 42

* * *

For each entry below, report its pIC50 value.
MEASUREMENT_PROTOCOL: Inhibition of bovine liver beta-glucosidase using p-nitrophenyl glycopyranoside preincubated for 5 mins followed by substrate addition measured after 20 mins by visible absorption spectroscopic method
Parameters: species or system Bos taurus
One number for each entry, as −log10 of the molar value.

Example results:
>>> print(df.to_string())
                                        mol  quantitative_readout
0  COc1ccc(-c2cn(C[C@H]3NC[C@@H](O)[C@H]3O)nn2)cc1                  3.05
1  O[C@@H]1[C@H](O)CN[C@@H]1Cn1cc(-c2ccccc2)nn1                  3.62

Ask: # input compound: `OCc1ccc(-c2cn(C[C@H]3NC[C@@H](O)[C@H]3O)nn2)cc1` ; wanted: its pIC50
Result: 3.05

* * *

MEASUREMENT_TARGET: Alpha-galactosidase (Coffea arabica)
MEASUREMENT_PROTOCOL: Inhibition of coffee beans alpha-galactosidase at 1 mM using p-nitrophenyl glycopyranoside preincubated for 5 mins followed by substrate addition measured after 20 mins by visible absorption spectroscopic method relative to control
The source made the active and inactive calls. No cut-off for these calls is given here.
RECORDED_ENDPOINT: inhibition

Example results:
>>> print(df.to_string())
                                        mol  recorded_endpoint    result
0  C[Si](C)(C)Cc1cn(C[C@@H]2NC[C@@H](O)[C@H]2O)nn1         inhibition     < 50%
1  O[C@H]1[C@@H](O)CN[C@@H]1Cn1cc(-c2ccccc2)nn1         inhibition  inactive
2  O[C@@H]1[C@H](O)CN[C@H]1Cn1cc(-c2ccccc2)nn1         inhibition     < 50%
3  O[C@@H]1[C@@H](c2cn(Cc3ccccc3)nn2)NC[C@@H]1O         inhibition  inactive
4  O[C@@H]1[C@H](O)CN[C@@H]1CCn1cc(-c2ccccc2)nn1         inhibition       89%
5  O[C@@H]1[C@H](O)CN[C@@H]1c1cn(Cc2ccccc2)nn1         inhibition  inactive
6  O[C@@H]1[C@H](O)CN[C@H]1CNC(=S)Nc1ccccc1         inhibition       16%
7     [N-]=[N+]=NC[C@@H]1NC[C@@H](O)[C@H]1O         inhibition       44%

Give inhibition for each listed item.
1. O[C@@H]1[C@H](O)CN[C@H]1c1cn(Cc2ccccc2)nn1
2. [N-]=[N+]=NC[C@H]1NC[C@@H](O)[C@H]1O
3. O=C(NC[C@@H]1NC[C@@H](O)[C@H]1O)c1ccccc1

Result:
inactive
88%
inactive
